For each of the compounds below, state its IC50.
Tested on: PDE4
Test: PDE4 Assay Procedure ([3H]-cAMP SPA)
Assay type: biochemical
Conditions: 15 nM [3H]-cAMP, 1 hour at room temperature, SPA beads

Look up IC50 for this compound: CC(C)c1nc2sc3c(NCc4ccccn4)ncnc3c2c2c1COC(C)(C)C2 [Example 46] 14 nM

Param item: CCC1(C)Cc2c(c(N3CCOCC3)nc3sc4c(NCc5cccnc5)ncnc4c23)CO1 (stereo not shown) [Example 80] 13 nM

Param item: CCCc1nc2sc3c(NCc4cccnc4)ncnc3c2c2c1COC(C)(C)C2 [Example 72] 24 nM

Param item: CC1(C)Cc2c(c(N3CCCC3)nc3sc4c(NCCN5CCOCC5)ncnc4c23)CO1 [Example 27] 23 nM
